- System: methicillin-resistant Staphylococcus aureus (MRSA) clinical isolates
- method-summary: Broth microdilution MIC, clinical MRSA isolates
- Format: cell-based
- experimental-conditions: clinical isolate 24,268 MRSA; 24 h, 0.08–40 μM; read-out: MIC 24,268 MRSA
measured-endpoint: MIC (µM)

compound | MIC / µM
Cc1c(C)c(C)[c-](C)c1C.F[P-](F)(F)(F)(F)F.N[C@@H]1[C@@H](OC(=O)c2ccccc2)[C@H](OC(=O)c2ccccc2)[C@@H](COC(=O)c2ccccc2)O[C@H]1c1ccccn1.[Cl][Ir+2] | 10

P: Cc1ccc(C(C)C)cc1.F[P-](F)(F)(F)(F)F.N[C@@H]1[C@@H](OC(=O)c2ccccc2)[C@H](OC(=O)c2ccccc2)[C@@H](COC(=O)c2ccccc2)O[C@H]1c1ccccn1.[Cl][Os+]
Q: Cc1ccc(C(C)C)cc1.F[P-](F)(F)(F)(F)F.NC1C(c2cccnn2)OC(COC(=O)c2ccccc2)C(OC(=O)c2ccccc2)C1OC(=O)c1ccccc1.[Cl][Ru+] (mixture of isomers)
Hi there, can you help? I need to know whether P or Q has lower measured MIC. Selection: enter the item's label.
P

---

- System: methicillin-resistant Staphylococcus aureus (MRSA) clinical isolates
- method-summary: Broth microdilution MIC, clinical MRSA isolates
- Assay type: cell-based
- experimental-conditions: clinical isolate 24,268 MRSA; 24 h, 0.08–40 μM; read-out: MIC 24,268 MRSA
measured-endpoint: MIC (µM)

1: Cc1ccc(C(C)C)cc1.F[P-](F)(F)(F)(F)F.NC1C(c2cccnn2)OC(COC(=O)c2ccccc2)C(OC(=O)c2ccccc2)C1OC(=O)c1ccccc1.[Cl][Os+] (mixture of isomers)
2: Cc1ccc(C(C)C)cc1.F[P-](F)(F)(F)(F)F.N[C@@H]1[C@@H](OCc2ccccc2)[C@H](OCc2ccccc2)[C@@H](COCc2ccccc2)O[C@H]1c1ccccn1.[Cl][Ru+]
3: Cc1ccc(C(C)C)cc1.F[P-](F)(F)(F)(F)F.N[C@@H]1[C@@H](OCc2ccccc2)[C@H](OCc2ccccc2)[C@@H](COCc2ccccc2)O[C@H]1c1cnccn1.[Cl][Os+]
Sort the items above on MIC, descending. Provide the ranking by listing each label in its place in the requested order.
3, 1, 2
(3: 40 µM, 1: 10 µM, 2: 5 µM)

---

Property: MIC; scope: individual molecules
- Test system: vancomycin-resistant Enterococcus (VRE) clinical isolates
- method-summary: Broth microdilution MIC, clinical VRE isolates
- Format: cell-based, E. faecium
- experimental-conditions: clinical isolate 27,085 VRE; 24 h, 0.08–40 μM; read-out: MIC 27,085 VRE

chemical-structure | MIC
Cc1c(C)c(C)[c-](C)c1C.F[P-](F)(F)(F)(F)F.N[C@@H]1[C@@H](OC(=O)c2ccccc2)[C@H](OC(=O)c2ccccc2)[C@@H](COC(=O)c2ccccc2)O[C@H]1c1ccccn1.[Cl][Rh+2] | >40 µM
Cc1ccc(C(C)C)cc1.F[P-](F)(F)(F)(F)F.N[C@@H]1[C@@H](OC(=O)c2ccccc2)[C@H](OC(=O)c2ccccc2)[C@@H](COC(=O)c2ccccc2)O[C@H]1c1ccc2ccccc2n1.[Cl][Ru+] | >40 µM

Okay, next one:
Given the entry `Cc1c(C)c(C)[c-](C)c1C.F[P-](F)(F)(F)(F)F.N[C@@H]1[C@@H](OC(=O)c2ccccc2)[C@H](OC(=O)c2ccccc2)[C@@H](COC(=O)c2ccccc2)O[C@H]1c1ccc2ccccc2n1.[Cl][Rh+2]` , report its measured MIC.
>40 µM

---

- Test system: A2780 cells
- method-summary: SRB binding assay, cytostasis, 48 h treatment
- Assay type: cell-based
- experimental-conditions: up to 100 μM, ND = not detectable
measured-endpoint: A2780 SRB Max Inhibition

Use the examples below as a reference point.
molecule | assay-system | A2780 SRB Max Inhibition
N[C@@H]1[C@@H](OC(=O)c2ccccc2)[C@H](OC(=O)c2ccccc2)[C@@H](COC(=O)c2ccccc2)O[C@H]1c1cnccn1 | A2780 cells | 73.37%
Cc1ccc(C(C)C)cc1.F[P-](F)(F)(F)(F)F.NC1C(c2cccnn2)OC(COC(=O)c2ccccc2)C(OC(=O)c2ccccc2)C1OC(=O)c1ccccc1.[Cl][Ru+] (mixture of isomers) | A2780 cells | >90%
Cc1c(C)c(C)[c-](C)c1C.F[P-](F)(F)(F)(F)F.NC1C(c2cccnn2)OC(COC(=O)c2ccccc2)C(OC(=O)c2ccccc2)C1OC(=O)c1ccccc1.[Cl][Rh+2] (mixture of isomers) | A2780 cells | >90%

Okay, next one:
Given the entry `Cc1ccc(C(C)C)cc1.F[P-](F)(F)(F)(F)F.N[C@@H]1[C@@H](OC(=O)c2ccccc2)[C@H](OC(=O)c2ccccc2)[C@@H](COC(=O)c2ccccc2)O[C@H]1c1ccc2ccccc2n1.[Cl][Ru+]` , report its measured A2780 SRB Max Inhibition.
67.50%

---

Property: MIC; scope: individual molecules
- System: vancomycin-resistant Enterococcus (VRE) clinical isolates
- method-summary: Broth microdilution MIC, clinical VRE isolates
- Format: cell-based, E. faecium
- experimental-conditions: clinical isolate 27,085 VRE; 24 h, 0.08–40 μM; read-out: MIC 27,085 VRE

Return MIC measured with vancomycin-resistant Enterococcus (VRE) clinical isolates given this molecule: `Cc1c(C)c(C)[c-](C)c1C.F[P-](F)(F)(F)(F)F.N[C@@H]1[C@@H](OCc2ccccc2)[C@H](OCc2ccccc2)[C@@H](COCc2ccccc2)O[C@H]1c1ccccn1.[Cl][Rh+2]`
>40 µM

Similarly, Cc1c(C)c(C)[c-](C)c1C.F[P-](F)(F)(F)(F)F.NC1C(c2cccnn2)OC(COC(=O)c2ccccc2)C(OC(=O)c2ccccc2)C1OC(=O)c1ccccc1.[Cl][Rh+2] (mixture of isomers) ?
>40 µM

Similarly, `Cc1ccc(C(C)C)cc1.F[P-](F)(F)(F)(F)F.N[C@@H]1[C@@H](OC(=O)c2ccccc2)[C@H](OC(=O)c2ccccc2)[C@@H](COC(=O)c2ccccc2)O[C@H]1c1ccc2ccccc2n1.[Cl][Os+]` ?
>40 µM

---

- Tested on: A2780 cells
- method-summary: SRB binding assay, cytostasis, 48 h treatment
- Format: cell-based
- experimental-conditions: up to 100 μM, ND = not detectable
- Protocol: The complexes described above are intended to replace registered platinum complexes. […] An SRB assay measures protein content of cells in correlation with the cell number in an assay well and can therefore be used to assess cell proliferation or long-term cytostasis. […] Plates were measured in a plate photometer (Thermo Scientific Multiscan GO spectrophotometer, Waltham, MA, USA) at 540 nm. […]
Property: A2780 SRB Max Inhibition; scope: individual compounds

Use the examples below as a reference point.
chemical-structure | A2780 SRB Max Inhibition
N[C@@H]1[C@@H](OC(=O)c2ccccc2)[C@H](OC(=O)c2ccccc2)[C@@H](COC(=O)c2ccccc2)O[C@H]1c1cccnn1 | 18.38%
Cc1c(C)c(C)[c-](C)c1C.F[P-](F)(F)(F)(F)F.N[C@@H]1[C@@H](OC(=O)c2ccccc2)[C@H](OC(=O)c2ccccc2)[C@@H](COC(=O)c2ccccc2)O[C@H]1c1ccccn1.[Cl][Rh+2] | >90%
Cc1c(C)c(C)[c-](C)c1C.F[P-](F)(F)(F)(F)F.N[C@@H]1[C@@H](OC(=O)c2ccccc2)[C@H](OC(=O)c2ccccc2)[C@@H](COC(=O)c2ccccc2)O[C@H]1c1ccccn1.[Cl][Ir+2] | >90%
Cc1c(C)c(C)[c-](C)c1C.F[P-](F)(F)(F)(F)F.N[C@@H]1[C@@H](OCc2ccccc2)[C@H](OCc2ccccc2)[C@@H](COCc2ccccc2)O[C@H]1c1ccccn1.[Cl][Ir+2] | >90%

Okay, next one:
Given the entry `Cc1ccc(C(C)C)cc1.F[P-](F)(F)(F)(F)F.N[C@@H]1[C@@H](OCc2ccccc2)[C@H](OCc2ccccc2)[C@@H](COCc2ccccc2)O[C@H]1c1cnccn1.[Cl][Ru+]` , report its measured A2780 SRB Max Inhibition.
>90%
